Entries and their measured z-score follow.
test description: Plasmodium falciparum growth inhibition, primary screen, strain 3D7, DAPI fluorescence, 100 nL (AID 1184);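 also: parasites grown inside human red blood cells in medium with human serum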
settings: P. falciparum 3D7 growth, 3 d, higher = more signal
quantity measured: z-score

CC(C)c1ccc(NN2C(C(O)C(C)c3ccccc3)C=CC3C(=O)N(c4ccccc4)C(=O)C32)cc1 (configuration not stated); -0.119
COc1ccc(C(=O)Nc2ccc(CN3C(=O)[C@@]4(O[C@@H](CC(=O)N(CCO)Cc5ccccc5)[C@H]([Si](C)(C)c5ccc(OC)cc5)[C@H]4C)c4ccccc43)cc2)cc1; -0.992
NCCCCCCNC(=O)[C@@H]1C[C@@H]2C(=O)NCC(=O)N2[C@@H]1c1cccc(OCCO)c1; 0.418
COC(=O)C1=CC(c2ccc(CO)cc2)=CC(C2CC2)N(Cc2cc3c(cc2Br)OCO3)C=C1C(=O)OC (configuration not stated); -2.29
O=C1C2C=CC(C(O)C3CCCCC3)N(Nc3ccccc3F)C2C(=O)N1c1ccccc1 (configuration not stated); -0.193
Cc1ccc(N2C(=O)c3ccccc3[C@@H](C(=O)NCCN3CCOCC3)[C@@H]2c2ccc(CO)cc2)nc1; 1.41
CC(C)C[C@H]1NC(=O)CNC(=O)[C@@]23C(=O)N[C@@H](Cc4ccccc4)C2[C@H](C)[C@@]2(C)O[C@H]2C3/C=C/C/C=C\CNC1=O (some centres not stated); 0.933

* * *

test description: osmotic lysis modulators in infected erythrocytes, primary screen, PSAC antagonist project, cell-based, P. falciparum Indochina, OD700, 3 h (AID 1156)
settings: higher = more signal, called active from +8 up or from −8 down
Criterion: z-score meeting or surpassing 0.6. Met: Satisfied. Not met: Not satisfied.

Cc1ccc(S[C@]2(C(=O)NCCN3CCOCC3)CC(=O)N(C(C)C)[C@@H]2c2ccc(CO)cc2I)cc1; Satisfied
C=C(C(=O)CC[C@@H](OC(=O)c1cccnc1)c1cccc(OCCO)c1)C(C)C; Not satisfied
COc1ccc(-c2cc3c(c(CCc4ccccc4)n2)[Si](C(C)C)(C(C)C)O[C@H]3c2ccccc2)cn1; Not satisfied
C=CCC(OC(C)=O)[C@@H]1[C@@H](N(Cc2cccc3ccccc23)C(=O)c2ccc(C)cc2)c2cc(OCCCO)ccc2N1C(=O)Cc1ccc2ccccc2c1 (some centres undefined); Not satisfied
O=C1C2C=CC(C(O)C3CC=CCC3)N(Nc3ccc([N+](=O)[O-])cc3)C2C(=O)N1c1ccccc1 (centres undefined); Satisfied
C=CCOC(=O)[C@H]1[C@@H]2C(=O)O[C@@H](c3ccccc3)[C@@H](c3ccccc3)N2[C@@H](c2ccc(OCCOC(=O)[C@@H]3C[C@@H]4C(=O)N[C@@H](Cc5ccccc5)C(=O)N4[C@@H]3c3ccc(O)cc3)cc2)[C@]12C(=O)Nc1ccc(I)cc12; Satisfied
O=C1O[C@@H](c2ccccc2)[C@@H](c2ccccc2)N2[C@@H](c3ccccc3OCCO)[C@]3(C(=O)Nc4ccc(C#CC5(O)CCCCCC5)cc43)[C@@H](C(=O)N3CCCCCCC3)[C@H]12; Satisfied
C=C[C@H](C)[C@@H](OC(=O)Nc1ccc(SC)cc1)c1ccc(OCCO)cc1; Satisfied
O=C1c2ccccc2[C@@]2(Cc3ccccc3N(CC(F)(F)F)C2=O)[C@H](c2ccc(CO)cc2)N1Cc1ccccc1; Not satisfied
COC(=O)C(CC#Cc1ccc2c(c1)[C@]1(C(=O)N2)[C@H](C(N)=O)[C@H]2C(=O)O[C@H](c3ccccc3)[C@H](c3ccccc3)N2[C@@H]1c1ccccc1OCCO)C(=O)OC; Satisfied
CN1C2C=C(c3ccc(CO)cc3)C(C3C(=O)N(C(N)=O)C(=O)C32)C1C1CC1 (centres undefined); Not satisfied
Cc1ccc(S[C@]2(C(=O)NC(C)C)CC(=O)N(Cc3ccccc3)[C@@H]2c2ccc(CO)cc2)cc1; Not satisfied
COC(=O)[C@@]1(Cc2ccc(F)cc2)[C@H]2c3cc(C(=O)N4CCCC4)n(Cc4ccc(C(F)(F)F)nc4)c3C[C@H]2CN1C(=O)c1ccccc1; Satisfied
